Below is a list of entries, each paired with its recorded Percent Effect value.
TESTED SYSTEM: Chromo domain-containing protein 1 (Saccharomyces cerevisiae (strain ATCC 204508 / S288c) (Baker's yeast))
TEST METHOD NOTES: ScCHD-1 Enzyme Inhibition Assay
Type: functional
Design: scale not given: in the data most compounds retested in dose-response had high values
RUN CONDITIONS: 30 µM
Give just the numeric value; % need not be written.

Query string: So what does the record say about Percent Effect for CCCC(=O)N1CCC2(CC1)CC(NC(C)=O)c1ccccc1O2 (stereo not drawn) ?
Result string: -2.27

Query string: So what does the record say about Percent Effect for `COc1ccc(CN2C[C@@H]3COC[C@]3(CN(C)C)C2)cc1` ?
Result string: -0.368
